Provide the reported NHEJ repair efficiency (log10) of each item.
System: CLZ3 (HCA2 human fibroblast dual HR-NHEJ reporter);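 also: compound given one day ahead of doxycycline, which switches on I-SceI endonuclease to cut the chromosomally integrated reporter and create DSBs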
experiment notes: NHEJ repair efficiency (GFP+ cells) relative to control (log10 fold); higher = more non-homologous end joining
protocol conditions: 5 µM; doxycycline 0.5 ug/mL

Worked cases, answers included:
molecule	NHEJ repair efficiency (log10)
OC[C@H]1OC(O)[C@H](O)[C@@H](O)[C@H]1O (some centres not stated)	0.00385
C=C1C[C@@]23CC[C@H]4[C@@](C)(CCC[C@@]4(C)C(=O)O[C@@H]4O[C@H](CO)[C@@H](O)[C@H](O)[C@H]4O)[C@@H]2CC[C@]1(O[C@@H]1O[C@H](CO)[C@@H](O)[C@H](O)[C@H]1O)C3 [Rubusoside]	0.0726
O=C1C[C@@H](c2ccc(O)c(O)c2)Oc2cc(O)cc(O)c21	-0.0055

Hi team, please reply with NHEJ repair efficiency (log10) for each item in this list.
1. O=C(/C=C/c1ccc(O)c(O)c1)O[C@H]1[C@H](O)C[C@](O)(C(=O)O)C[C@H]1O
2. O=c1cc(-c2ccc(O)c(-c3c(O)cc(O)c4c(=O)cc(-c5ccc(O)cc5)oc34)c2)oc2cc(O)cc(O)c12
3. COc1ccc([C@H]2OC[C@H]3[C@@H]2CO[C@H]3c2ccc(O[C@@H]3O[C@H](CO)[C@@H](O)[C@H](O)[C@H]3O)c(OC)c2)cc1OC
4. O=C1c2c(O)cc(O)cc2OC(c2ccc(O)c(O)c2)C1O (configuration not stated)

1: 0.102; 2: 0.0928; 3: -0.0633; 4: -0.132

The reported measurements were obtained from the supplement of paper PMC7380943.
